The measured values listed here are drawn from ChEMBL document CHEMBL3526018.

# Tested on: CYP3A5 (Homo sapiens)
# assay-text: Activity of human recombinant CYP3A5 assessed as ((3R,4S,5S,6R)-4-((2R,3R)-3-((E)-4-hydroxy-3-methylbut-2-en-1-yl)-2-methyloxiran-2-yl)-5-methoxy-1-oxaspiro[2.5]octan-6-yl((R)-1-amino-3-methyl-1-oxobutan-2-yl)carbamate) formation
# run-parameters: recombinant enzyme
result-type: Km (µM)
Reply with just the number (in µM).

Input line: Consider the compound "CO[C@@H]1[C@H](OC(=O)N[C@@H](C(N)=O)C(C)C)CC[C@]2(CO2)[C@H]1[C@@]1(C)O[C@@H]1CC=C(C)C" tested on CYP3A5 (Homo sapiens); state its Km.
Output line: 26
